Attribution: ChEMBL document CHEMBL3407421

Property: Retention_time; scope: individual compounds
Assay protocol: Retention time of the compound
Type: physicochemical
State the answer as a number, implicitly in min.

For orientation, consider the following solved cases.
Chem smiles: CCOC(=O)c1sc(Nc2ccc(OCc3ccccc3)c(Cl)c2)nc1-c1ccccc1
Retention_time (min): 10.92
--
Chem smiles: CCOC(=O)c1sc(Nc2ccc(OCc3c(F)cccc3Cl)c(Cl)c2)nc1-c1ccccc1
Retention_time (min): 9.95
--
Chem smiles: CCOC(=O)c1sc(Nc2ccc(Oc3ccccc3)c(Cl)c2)nc1-c1ccccc1
Retention_time (min): 11.24

Task: What measured Retention_time goes with "CCOC(=O)c1sc(Nc2ccc3ccccc3c2)nc1C" ?
Output: 9.01

====

Study target: Dihydroorotate dehydrogenase (quinone), mitochondrial (Homo sapiens)
Sequence (Q02127 whole entry): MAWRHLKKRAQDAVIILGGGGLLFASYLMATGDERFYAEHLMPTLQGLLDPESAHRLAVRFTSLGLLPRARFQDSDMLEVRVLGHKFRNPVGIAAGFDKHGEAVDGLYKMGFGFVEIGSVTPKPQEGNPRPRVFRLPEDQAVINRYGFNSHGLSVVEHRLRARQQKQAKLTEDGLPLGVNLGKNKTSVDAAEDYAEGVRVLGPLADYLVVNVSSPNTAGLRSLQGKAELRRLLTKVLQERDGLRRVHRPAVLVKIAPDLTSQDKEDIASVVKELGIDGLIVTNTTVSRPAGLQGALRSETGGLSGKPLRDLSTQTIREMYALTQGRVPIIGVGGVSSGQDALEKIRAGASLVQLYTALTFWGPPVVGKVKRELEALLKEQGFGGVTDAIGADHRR
Param label: returns 1.0 when IC50 < 2 µM, returns 0.0 otherwise, including exact equality.

Chem smiles: CCOC(=O)c1sc(Nc2ccc(C)c(C)c2)nc1NC(=O)C1CC1
Study target: Dihydroorotate dehydrogenase (quinone), mitochondrial (Homo sapiens)
Class name: 0.0
--
Chem smiles: CC(=O)c1sc(Nc2ccc3ccccc3c2)nc1C
Study target: Dihydroorotate dehydrogenase (quinone), mitochondrial (Homo sapiens)
Class name: 1.0
--
Chem smiles: CCOC(=O)c1sc(Nc2ccc(-c3ccccc3)cc2F)nc1-c1ccccc1
Study target: Dihydroorotate dehydrogenase (quinone), mitochondrial (Homo sapiens)
Class name: 0.0

Task: Is IC50 strictly under 2 µM for the entry "CCOC(=O)c1sc(Nc2ccc(OCc3ccccc3)c(Cl)c2)nc1-c1ccccc1" ?
Output: 0.0

Task: Please do the same for "CC(=O)c1sc(Nc2ccc(C)c(Cl)c2)nc1C" as well.
Output: 0.0

Task: // query: "CCOC(=O)c1sc(Nc2ccc(Cl)c(C(F)(F)F)c2)nc1NC(=O)c1ccccc1"
Output: 0.0

Task: Record: "CCOC(=O)c1sc(Nc2ccc(-c3cccc(OC)c3)cc2F)nc1-c1ccccc1"
Output: 0.0

Task: Repeat for the following compound: "CC(=O)c1sc(Nc2ccc(C)c(C)c2)nc1C"
Output: 0.0

Task: Now consider "CC(=O)c1sc(Nc2ccc(Br)c(C(F)(F)F)c2)nc1C" and answer again.
Output: 1.0

Task: Now this one: "CC(=O)c1sc(Nc2ccc(C(C)(C)C)cc2)nc1C"
Output: 0.0

Task: Likewise for "CCOC(=O)c1sc(Nc2ccc(-c3ccccc3)cc2)nc1-c1ccccc1" ?
Output: 0.0

Task: Likewise for "CC(=O)c1sc(Nc2ccc(Cl)c(C(F)(F)F)c2)nc1C" ?
Output: 0.0

Task: Subsequent entry: "CC(=O)c1sc(Nc2ccc(Br)cc2)nc1C"
Output: 0.0

====

Assay protocol: Retention time of the compound
Assay type: physicochemical
For each record, check the reported Retention_time: if it is below 10 min write rule met, else write rule not met.

The examples below pair each entry with its known result.
Chem smiles: CCOC(=O)c1sc(Nc2ccc(OC)cc2)nc1-c1ccccc1
Class name: rule met

Chem smiles: CCOC(=O)c1sc(Nc2ccc3c(c2)CCC3)nc1-c1ccccc1
Class name: rule not met

Chem smiles: CCOC(=O)c1sc(Nc2ccc3cc4ccccc4cc3c2)nc1-c1ccccc1
Class name: rule not met

Chem smiles: CCOC(=O)c1sc(Nc2ccc(C)c(Cl)c2)nc1-c1ccccc1
Class name: rule not met

Chem smiles: CCOC(=O)c1sc(Nc2ccc(C)c(C)c2)nc1NC(=O)C1CC1
Class name: rule met

Chem smiles: CCOC(=O)c1sc(Nc2ccc(C)c(Cl)c2)nc1C
Class name: rule not met

Chem smiles: CCOC(=O)c1sc(Nc2ccc(C(C)(C)C)cc2)nc1-c1ccccc1
Class name: rule not met

Chem smiles: CCOC(=O)c1sc(Nc2ccc(Cl)cc2)nc1-c1ccccc1
Class name: rule met

Chem smiles: CCOC(=O)c1sc(Nc2ccc(C)c(F)c2)nc1-c1ccccc1
Class name: rule met

Chem smiles: CCOC(=O)c1sc(Nc2ccccc2)nc1-c1ccccc1
Class name: rule met

Here is another compound to look at.
Task: API: query returns whether the compound falls strictly under 10 min in Retention_time. Query: "CCOC(=O)c1sc(Nc2ccc3c(c2)CCCC3)nc1-c1ccccc1"
Output: rule not met

====

List of Retention_time values.
Assay protocol: Retention time of the compound
Assay type: physicochemical
Number in min, nothing else.

# example entries with known answers
Chem smiles: CC(=O)c1sc(Nc2ccc(Cl)c(C(F)(F)F)c2)nc1C
Retention_time [min]: 16.17
//
Chem smiles: CCOC(=O)c1sc(Nc2ccc(Br)c(C(F)(F)F)c2)nc1-c1ccccc1
Retention_time [min]: 11.33

Task: For "CCOC(=O)c1sc(Nc2c(F)cc(-c3cccc(OC)c3)cc2F)nc1-c1ccccc1" , what is its reported Retention_time?
Output: 9.51

Task: Entry "CCOC(=O)c1sc(Nc2ccc(Cl)c(C(F)(F)F)c2)nc1NC(=O)C1CC1" please
Output: 7.75

Task: Follow-up item: "CCOC(=O)c1sc(Nc2ccc(C)c(Cl)c2)nc1C1CC1"
Output: 11.22

Task: And then "CC(=O)c1sc(Nc2ccc(C(C)(C)C)cc2)nc1C" , what is it?
Output: 14.61
